- ASSAY_TARGET: T1, Proteinase-Activated Receptor-2 (human, on human keratinocytes) (human, UniProt P55085 37-397)
- T1 sequence (looked up): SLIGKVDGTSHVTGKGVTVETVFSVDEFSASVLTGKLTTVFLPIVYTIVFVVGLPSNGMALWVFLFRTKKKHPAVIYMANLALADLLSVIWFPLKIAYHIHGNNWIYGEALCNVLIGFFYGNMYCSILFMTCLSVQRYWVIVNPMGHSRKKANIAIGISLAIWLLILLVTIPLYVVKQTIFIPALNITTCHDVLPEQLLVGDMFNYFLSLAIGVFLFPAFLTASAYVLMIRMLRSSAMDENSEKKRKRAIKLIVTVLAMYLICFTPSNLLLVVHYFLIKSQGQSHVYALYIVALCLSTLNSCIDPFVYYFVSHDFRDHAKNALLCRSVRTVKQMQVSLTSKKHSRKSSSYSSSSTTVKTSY
- TEST_DESCRIPTION: cell-based or functional assay
READOUT: PAR-2 activity (calcium fluorescence, human keratinocytes, peptide at 1 mg/mL) (%)

binder="Ac-FFRDHV-NH2 [Ac-L-Phe-L-Phe-L-Arg-L-Asp-L-His-L-Val-NH2]" numeric_readout=39.7
binder="Ac-FMRFHV-NH2 [Ac-L-Phe-L-Met-L-Arg-L-Phe-L-His-L-Val-NH2]" numeric_readout=60
binder="Ac-SMRFIV-NH2 [Ac-L-Ser-L-Met-L-Arg-L-Phe-L-Ile-L-Val-NH2]" numeric_readout=24.8

a = Ac-FMQFHV-NH2 [Ac-L-Phe-L-Met-L-Gln-L-Phe-L-His-L-Val-NH2]
b = Ac-FFWFIS-NH2 [Ac-L-Phe-L-Phe-L-Trp-L-Phe-L-Ile-L-Ser-NH2]
c = Ac-FMWDIV-NH2 [Ac-L-Phe-L-Met-L-Trp-L-Asp-L-Ile-L-Val-NH2]
QUERY: Order each entry by recorded PAR-2 activity (calcium fluorescence, human keratinocytes, peptide at 1 mg/mL), climbing from the minimum. Respond with an ordered listing of the labels, as requested.
RESULT: c, b, a
(c: 13.9%, b: 33.7%, a: 77.5%)

I = Ac-FFQFHV-NH2 [Ac-L-Phe-L-Phe-L-Gln-L-Phe-L-His-L-Val-NH2]
II = Ac-SMQFIS-NH2 [Ac-L-Ser-L-Met-L-Gln-L-Phe-L-Ile-L-Ser-NH2]
QUERY: Of the two listed items, which has the higher PAR-2 activity (calcium fluorescence, human keratinocytes, peptide at 1 mg/mL)? First: I Second: II Returns: label corresponding to the selected item.
RESULT: I
(I: 80.1%, II: 47.4%)

1 = Ac-SMQFIV-NH2 [Ac-L-Ser-L-Met-L-Gln-L-Phe-L-Ile-L-Val-NH2]
2 = Ac-FFQFIS-NH2 [Ac-L-Phe-L-Phe-L-Gln-L-Phe-L-Ile-L-Ser-NH2]
QUERY: Lab note: check whether 1 or 2 has the lower measured PAR-2 activity (calcium fluorescence, human keratinocytes, peptide at 1 mg/mL). Returns: label corresponding to the selected item.
RESULT: 2
(2: 40.7%, 1: 76.7%)

The origin of these recorded values is patent US20140322307A1.
